- Tested on: KG-1
- Assay protocol: Antiproliferative activity against human KG-1 cells assessed as inhibition of cell growth incubated for 72 hrs by MTT assay
- Format: functional, cell-based
- Condition set: KG-1, 72 h
Reported metric: IC50
Reply with the number and its unit after it.

Examples with their reported IC50 follow.
>  <Item smiles>
O=C(/C=C/c1cccs1)c1cnccn1

>  <IC50>
11.9 µM

$$$$
>  <Item smiles>
Cc1ccc(/C=C/C(=O)c2nccnc2C)cc1

>  <IC50>
3.83 µM

$$$$
>  <Item smiles>
Cc1nccnc1C(=O)/C=C/c1ccc(Cl)cc1Cl

>  <IC50>
7.67 µM

$$$$
>  <Item smiles>
CCc1nccnc1C(=O)/C=C/c1ccc(C#N)cc1

>  <IC50>
3.98 µM

$$$$
>  <Item smiles>
Cc1nccnc1C(=O)/C=C/c1ccc(F)cc1F

>  <IC50>
6.15 µM

$$$$
>  <Item smiles>
CC(/C=C/C(=O)c1cnccn1)=C\c1ccccc1

>  <IC50>
44.5 µM

$$$$
>  <Item smiles>
CCc1nccnc1C(=O)/C=C/c1ccccc1C

>  <IC50>
22.9 µM

$$$$
>  <Item smiles>
Cc1ccc(/C=C/C(=O)c2cnccn2)cc1

>  <IC50>
11.4 µM

$$$$

IN: Give reported IC50 value for `Cc1nccnc1C(=O)/C=C/c1ccccc1Cl`
OUT: 1.26 µM

IN: Give reported IC50 value for `CCc1nccnc1C(=O)/C=C/c1ccccc1N1CCOCC1`
OUT: 5.46 µM
